Listed here: items and their measured IC50.
Molecular target: HLA A*3001 (Homo sapiens, UniProt P04439, D140H/D185E/E176W/F33S/G80R/H175R/K168Q/R138E/R41S)
Assay: biochemical
Where a SMILES comes first, the peptide text is derived from it.

COMPOUND | UNITS LABEL | IC50
CC[C@H](C)[C@H](NC(=O)[C@H](CCCCN)NC(=O)[C@@H](NC(=O)[C@@H](N)CCCNC(=N)N)[C@@H](C)O)C(=O)N[C@H](C(=O)N[C@@H](CO)C(=O)N[C@@H](CC(C)C)C(=O)N1CCC[C@H]1C(=O)N[C@@H](CC(C)C)C(=O)O)[C@@H](C)O [3102.0201] (H-RTKITSLPL-OH) | nM | 0.087
CC[C@H](C)[C@H](NC(=O)[C@H](Cc1ccc(O)cc1)NC(=O)[C@@H](NC(=O)[C@@H](N)CCCCN)C(C)C)C(=O)NCC(=O)N[C@@H](Cc1ccc(O)cc1)C(=O)N[C@@H](CS)C(=O)N[C@@H](CCSC)C(=O)N[C@@H](C)C(=O)O [3102.0272] (H-KVYIGYCMA-OH) | nM | 2.6

###

IC50 by entry:
Biological target: HLA A*3201 (Homo sapiens, UniProt P04439, A270S/D101S/D185E/E176V/E277Q/F133L/G103R/G107R/G231S/H175R/I121M/I218V/I322F/K168Q/L105A/L300P/L318F/M331R/P208A/P217A/Q94H/R106L/R138Q/S129P/T104I/T323A/T345S/V100E/V321M/V358M)
Experiment: biochemical
Where a SMILES comes first, the peptide text is derived from it.

COMPOUND | UNITS LABEL | IC50
CC[C@H](C)[C@H](NC(=O)[C@H](C)NC(=O)[C@H](CCC(N)=O)NC(=O)[C@H](Cc1ccccc1)NC(=O)[C@H](C)NC(=O)[C@H](Cc1ccccc1)NC(=O)[C@H](CO)NC(=O)[C@@H](NC(=O)[C@@H](N)CCCNC(=N)N)[C@@H](C)O)C(=O)O [3102.0512] (H-RTSFAFQAI-OH) | nM | 3.8
CC[C@H](C)[C@H](NC(=O)[C@H](CCCCN)NC(=O)[C@H](Cc1ccc(O)cc1)NC(=O)[C@H](Cc1ccccc1)NC(=O)[C@H](CCSC)NC(=O)[C@H](Cc1ccc(O)cc1)NC(=O)[C@H](CCC(N)=O)NC(=O)[C@@H](N)CCCNC(=N)N)C(=O)N[C@@H](Cc1ccccc1)C(=O)O [3102.1055] (H-RQYMFYKIF-OH) | nM | 19
CC[C@H](C)[C@H](NC(=O)[C@H](CO)NC(=O)[C@H](CC(N)=O)NC(=O)[C@H](CC(C)C)NC(=O)[C@@H](N)CO)C(=O)N[C@@H](Cc1ccccc1)C(=O)N[C@@H](CC(N)=O)C(=O)N[C@H](C(=O)N[C@@H](Cc1ccccc1)C(=O)O)[C@@H](C)O [3102.1238] (H-SLNSIFNTF-OH) | nM | 14

###

Target: H-2 K^d (Mus musculus, UniProt P01902)
Sequence (P01887 21-119): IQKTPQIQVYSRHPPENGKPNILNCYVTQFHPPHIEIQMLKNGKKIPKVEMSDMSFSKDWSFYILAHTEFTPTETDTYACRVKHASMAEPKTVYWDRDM
Sequence (P01902 22-368): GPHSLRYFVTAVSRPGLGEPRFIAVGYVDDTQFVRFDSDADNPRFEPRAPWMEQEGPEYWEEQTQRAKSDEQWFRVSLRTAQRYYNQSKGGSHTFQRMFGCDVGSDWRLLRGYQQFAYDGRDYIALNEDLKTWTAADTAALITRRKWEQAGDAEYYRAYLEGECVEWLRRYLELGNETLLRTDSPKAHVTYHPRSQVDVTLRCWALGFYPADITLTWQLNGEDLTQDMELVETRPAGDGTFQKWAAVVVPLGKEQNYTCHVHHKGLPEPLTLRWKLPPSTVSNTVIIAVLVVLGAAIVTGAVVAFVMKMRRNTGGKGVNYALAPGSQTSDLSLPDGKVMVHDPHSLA
Format: binding
In this section we review reported Normalized average relative binding affinity(ARB) values for a set of sequences.
MEASURED METRIC: Normalized average relative binding affinity(ARB)

SEQ TEXT | TARGET | MEASURED RESULT
XXXXXXMXX [3064.0131] | H-2 K^d (Mus musculus, UniProt P01902) | 0.080
XXXXXXXRX [3064.0155] | H-2 K^d (Mus musculus, UniProt P01902) | 0.49
XXXXXXVXX [3064.0138] | H-2 K^d (Mus musculus, UniProt P01902) | 0.13
XXXXQXXXX [3064.0094] | H-2 K^d (Mus musculus, UniProt P01902) | 0.15
XXXXXXXDX [3064.0143] | H-2 K^d (Mus musculus, UniProt P01902) | 0.62
XXXKXXXXX [3064.0069] | H-2 K^d (Mus musculus, UniProt P01902) | 0.23
XXXFXXXXX [3064.0065] | H-2 K^d (Mus musculus, UniProt P01902) | 0.098
XXXXXGXXX [3064.0106] | H-2 K^d (Mus musculus, UniProt P01902) | 0.30
XXXXXXSXX [3064.0136] | H-2 K^d (Mus musculus, UniProt P01902) | 0.92
XXXIXXXXX [3064.0068] | H-2 K^d (Mus musculus, UniProt P01902) | 0.22
XXXXXXAXX [3064.0121] | H-2 K^d (Mus musculus, UniProt P01902) | 0.17
XXXXXPXXX [3064.0113] | H-2 K^d (Mus musculus, UniProt P01902) | 0.15
XXXXEXXXX [3064.0084] | H-2 K^d (Mus musculus, UniProt P01902) | 0.031
XXXXFXXXX [3064.0085] | H-2 K^d (Mus musculus, UniProt P01902) | 0.13
XXXGXXXXX [3064.0066] | H-2 K^d (Mus musculus, UniProt P01902) | 0.14
XXXXXXXGX [3064.0146] | H-2 K^d (Mus musculus, UniProt P01902) | 0.63
